- Test system: OVCAR-4 ovarian
- protocolDescription: NCI-60 one-dose screen, 48 h (100 = growth as untreated, 0 = no growth, -100 = all killed)
- statedConditions: 10 µM unless noted
Compounds without any hit were thinned out: in the full panel of roughly 83,000, 20% have a hit.
Binary call on growth: rule met from 40% upward, rule not met beneath that.

Hi team, for C=C1C(=O)O[C@H]2[C@H]1CC/C(COC(=O)/C=C\C(=O)NCc1ccc(Cn3c(=O)sn(-c4ccc(C#N)cc4)c3=O)cc1)=C\CC[C@@]1(C)O[C@@H]21 , is the recorded growth at or above 40%?
rule not met

Hi team, for CN(C)CN1CCN(c2ccc3nc(-c4ccc5nc(-c6ccc(C(F)(F)F)cc6)[nH]c5c4)[nH]c3c2)CC1 , is the recorded growth at or above 40%?
rule not met

Hi team, for Cc1nc(Nc2ccc(N)cc2)c2ccccc2n1 , is the recorded growth at or above 40%?
rule met

Hi team, for Fc1ccc(Nc2nc(Nc3ccc(-c4nc5ccccc5[nH]4)cc3)c3cn[nH]c3n2)cc1 , is the recorded growth at or above 40%?
rule met

Hi team, for C=C1C(=O)O[C@H]2[C@H]1CC/C(COC(=O)/C=C\C(=O)NCc1ccc(Cn3c(=O)sn(CCCC)c3=O)cc1)=C\CC[C@@]1(C)O[C@@H]21 , is the recorded growth at or above 40%?
rule not met

Hi team, for C=C1c2c(C)nn(-c3ccc(NC(C)=O)cc3)c2N(C)C23CC1C1(C)c4c(C)nn(-c5ccc(NC(C)=O)cc5)c4N(C)C(C)(CC12)C3 (stereo not drawn) , is the recorded growth at or above 40%?
rule not met

Hi team, for Nc1ccc(-c2cc3c(Nc4ccc(OCc5cccc(F)c5)c(Cl)c4)ncnc3s2)cc1 , is the recorded growth at or above 40%?
rule met

* * *

- Test system: A498 renal
- protocolDescription: NCI-60 one-dose screen, 48 h (100 = growth as untreated, 0 = no growth, -100 = all killed)
- statedConditions: 10 µM unless noted
- Experimental: Growth inhibition of the A498 human tumor cell line is measured as a screen for anti-cancer activity. Cells are grown in 96 well plates and exposed to the test compound for 48 hours. Compounds are tested at a single concentration, which is 10^-5 M for most compounds. The reported endpoint is percent growth (GI% or GIPRCNT), where numbers from 0 - 100% represent growth inhibition, and numbers from -100% - 0 represent cell death. For example, a value of 40 represents 60% growth inhibition. […]
The panel holds about 83,000 compounds, 20% with a hit somewhere; the sample as a whole holds those more often.
Binary call on growth: y from 80% upward, n beneath that.

Some solved cases for reference:
>  <compound>
O=S(=O)(Cc1ccccc1)c1nc2ccccc2s1

>  <group>
y

$$$$
>  <compound>
CCc1cc(Cc2cc(CC)cc(C(C)(C)C)c2O)c(O)c(C(C)(C)C)c1

>  <group>
n

$$$$
>  <compound>
CCCCCCNc1cc(C)nc2ccc(OC)cc12

>  <group>
n

$$$$
>  <compound>
COc1ccc(-c2cn(-c3cccc(C(=O)/C=C/c4cc(OC)c(OC)c(OC)c4)c3)c(=O)[nH]2)cc1

>  <group>
n

$$$$
>  <compound>
Cc1cnc(Nc2ccc(OCCN3CCCC3)cc2)nc1NCc1ccco1

>  <group>
n

$$$$

Hi team, for CCNCCNc1cc(C2CCCC2)c(C#N)c2nc3ccccc3n12 , is the recorded growth at or above 80%?
n
